Source listed as the supplement of paper PMC9112550.

System: Escherichia coli TOP10
Assay Info: shrunken log2 fold change of peptide-encoding DNA abundance (4.5 h post-induction vs induction); higher = less antimicrobial activity (less host growth inhibition)
Test Context: time post-induction: 4.5 h; library: site-saturation at positions 5, 18, 19, 20
In this section, each of the sequences is paired with its reported shrunken log2 fold change.
Give the figure by itself; no unit, no explanation.

Sequence String	Experimental Target	Quantity Name	Measurement
RRIRMRPPRLPRPRPRPRTRPRP	Escherichia coli TOP10	shrunken log2 fold change	1.09
RRIRNRPPRLPRPRPRPPHTPRP	Escherichia coli TOP10	shrunken log2 fold change	-0.0383
RRIRNRPPRLPRPRPRPNLLPRP	Escherichia coli TOP10	shrunken log2 fold change	-0.112
RRIRERPPRLPRPRPRPFDSPRP	Escherichia coli TOP10	shrunken log2 fold change	-1.81
RRIRRRPPRLPRPRPRPDISPRP	Escherichia coli TOP10	shrunken log2 fold change	0.0322

Exercise: // query shrunken log2 fold change value for entry RRIRHRPPRLPRPRPRPSLFPRP
Solution: -0.625

Exercise: Would you mind telling me what shrunken log2 fold change value was observed for RRIRSRPPRLPRPRPRPGRAPRP ?
Solution: 1.02

Exercise: Fill blank: measured shrunken log2 fold change of the sequence RRIRYRPPRLPRPRPRPLSMPRP is ____.
Solution: -0.036

Exercise: Consider the sequence RRIRNRPPRLPRPRPRPVRHPRP and give its measured shrunken log2 fold change.
Solution: -0.0637

Exercise: So what's the measured shrunken log2 fold change for this one? RRIRERPPRLPRPRPRPSCDPRP
Solution: -0.281

Exercise: Please report the recorded shrunken log2 fold change for RRIRCRPPRLPRPRPRPKVTPRP .
Solution: -0.455

Exercise: // query shrunken log2 fold change value for entry RRIRRRPPRLPRPRPRPAHNPRP
Solution: 0.344

Exercise: What measured shrunken log2 fold change goes with RRIRLRPPRLPRPRPRPWKYPRP ?
Solution: -0.0875

Exercise: Would you mind telling me what shrunken log2 fold change value was observed for RRIRFRPPRLPRPRPRPKRPPRP ?
Solution: 0.755

Exercise: May I ask what shrunken log2 fold change has been recorded for RRIRHRPPRLPRPRPRPLMHPRP ?
Solution: -0.414

* * *

Tested on: Escherichia coli TOP10
Assay Info: shrunken log2 fold change of peptide-encoding DNA abundance (4.5 h post-induction vs induction); higher = less antimicrobial activity (less host growth inhibition)
Test Context: time post-induction: 4.5 h; library: site-saturation at positions 5, 18, 19, 20
Quantity Name: shrunken log2 fold change
Lab note: write the figure by itself, no unit.

Sequence String	shrunken log2 fold change
RRIRERPPRLPRPRPRPQVAPRP	-0.366
RRIRWRPPRLPRPRPRPMSGPRP	0.118
RRIRLRPPRLPRPRPRPLDAPRP	0.112
RRIRLRPPRLPRPRPRPFDGPRP	-0.00197
RRIRFRPPRLPRPRPRPDIQPRP	-0.628
RRIRLRPPRLPRPRPRPTWTPRP	-0.0607

Exercise: Please report the recorded shrunken log2 fold change for RRIRARPPRLPRPRPRPSEPPRP .
Solution: 0.11

* * *

A collection of sequences and their measured shrunken log2 fold change
Tested on: Escherichia coli TOP10;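 note: peptides expressed intracellularly from a pBAD plasmid library in pooled LB shake-flask culture, induced with 0.3% L-arabinose, DNA abundance read by NGS, three biological replicates, DESeq2 with apeglm shrinkage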
Assay Info: shrunken log2 fold change of peptide-encoding DNA abundance (4.5 h post-induction vs induction); higher = less antimicrobial activity (less host growth inhibition)
Test Context: time post-induction: 4.5 h; library: site-saturation at positions 5, 18, 19, 20
Please reply with the number alone, leaving off any unit.

Sequence String	Experimental Target	Quantity Name	Measurement
RRIRCRPPRLPRPRPRPPGVPRP	Escherichia coli TOP10	shrunken log2 fold change	0.158
RRIRYRPPRLPRPRPRPLRTPRP	Escherichia coli TOP10	shrunken log2 fold change	-0.151
RRIRERPPRLPRPRPRPGCCPRP	Escherichia coli TOP10	shrunken log2 fold change	0.131
RRIRRRPPRLPRPRPRPRKTPRP	Escherichia coli TOP10	shrunken log2 fold change	0.615

Exercise: Endpoint output: shrunken log2 fold change of RRIRCRPPRLPRPRPRPPKKPRP . Value?
Solution: 0.132

Exercise: Entry RRIRARPPRLPRPRPRPTKWPRP : reported shrunken log2 fold change = ?
Solution: 0.4

Exercise: Record request: shrunken log2 fold change value, item RRIRPRPPRLPRPRPRPYYRPRP
Solution: -0.178

Exercise: May I ask what shrunken log2 fold change has been recorded for RRIRARPPRLPRPRPRPVTYPRP ?
Solution: -0.265
